Each record here notes measured sPAP HepG2 B6 assay: Expt 2 % (EC50 as % of wild type EC50).
study-system: T1, gp130 on HepG2 B6 cells (UniProt P40189 23-918, limits assumed)
T1 sequence (looked up): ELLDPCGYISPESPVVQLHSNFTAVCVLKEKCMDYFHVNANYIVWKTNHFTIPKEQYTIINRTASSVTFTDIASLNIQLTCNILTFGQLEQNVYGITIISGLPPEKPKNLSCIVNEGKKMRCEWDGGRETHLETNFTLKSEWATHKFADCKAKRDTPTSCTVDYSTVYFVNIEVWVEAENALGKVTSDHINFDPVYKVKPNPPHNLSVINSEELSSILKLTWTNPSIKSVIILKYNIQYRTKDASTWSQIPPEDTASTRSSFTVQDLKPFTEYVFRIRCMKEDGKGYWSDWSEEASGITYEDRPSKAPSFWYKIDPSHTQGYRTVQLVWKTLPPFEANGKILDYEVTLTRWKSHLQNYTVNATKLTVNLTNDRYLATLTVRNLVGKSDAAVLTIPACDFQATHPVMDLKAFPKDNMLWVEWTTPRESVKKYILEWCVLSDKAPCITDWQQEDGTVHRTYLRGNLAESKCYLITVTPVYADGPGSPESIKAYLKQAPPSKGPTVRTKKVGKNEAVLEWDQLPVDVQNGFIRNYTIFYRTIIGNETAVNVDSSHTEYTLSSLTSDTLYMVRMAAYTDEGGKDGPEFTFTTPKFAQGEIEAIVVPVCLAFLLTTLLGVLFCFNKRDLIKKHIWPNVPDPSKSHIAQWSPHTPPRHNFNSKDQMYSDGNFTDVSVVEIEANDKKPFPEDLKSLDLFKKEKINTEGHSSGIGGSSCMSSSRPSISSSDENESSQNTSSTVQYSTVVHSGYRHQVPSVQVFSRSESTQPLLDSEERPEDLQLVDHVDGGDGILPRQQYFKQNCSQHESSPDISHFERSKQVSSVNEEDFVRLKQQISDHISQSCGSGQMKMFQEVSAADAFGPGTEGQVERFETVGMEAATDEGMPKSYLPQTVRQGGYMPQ
assay-info: cell-based or functional assay
measured-parameter: sPAP HepG2 B6 assay: Expt 2 % (EC50 as % of wild type EC50) (%)

binder | quantitative-result
OSM-GST mutant E9A (ligand, not shown: a dimerising Fc or GST; large carriers; small tags and cut ends, Alanine mutant of m4; also called (3)E9A; 3 E9A) AAIGSCSKAYRVLLGQLQKQTDLMQDTSRLLDPYIRIQGLDVPKLREHCRERPGAFPSEETLRGLGRRGFLQTLNATLGCVLHRLADLEQRLPKAQDLERSGLNIEDLEKLQMARPNILGLRNNIYCMAQLLDNSDTAEPTKAGRGASQPPTPTPASDAFQRKLEGCRFLHGYHRFMHSVGRVFSKWGESPNRSRR | 27
OSM-GST mutant D26A (ligand, not shown: a dimerising Fc or GST; large carriers; small tags and cut ends, Alanine mutant of m4; also called (27)D26A; 27 D26A) AAIGSCSKEYRVLLGQLQKQTDLMQATSRLLDPYIRIQGLDVPKLREHCRERPGAFPSEETLRGLGRRGFLQTLNATLGCVLHRLADLEQRLPKAQDLERSGLNIEDLEKLQMARPNILGLRNNIYCMAQLLDNSDTAEPTKAGRGASQPPTPTPASDAFQRKLEGCRFLHGYHRFMHSVGRVFSKWGESPNRSRR | 79
OSM-GST mutant L13A (ligand, Alanine mutant of m4; also called (6)L13A; 6 L13A; not shown: Its linker is left out) AAIGSCSKEYRVALGQLQKQTDLMQDTSRLLDPYIRIQGLDVPKLREHCRERPGAFPSEETLRGLGRRGFLQTLNATLGCVLHRLADLEQRLPKAQDLERSGLNIEDLEKLQMARPNILGLRNNIYCMAQLLDNSDTAEPTKAGRGASQPPTPTPASDAFQRKLEGCRFLHGYHRFMHSVGRVFSKWGESPNRSRR | 171
